System: BT-549
TEST PROTOCOL: NCI tumour cell line growth inhibition, 48 h
Calls of active or inactive are those of the source. Rule as the data show it: active = GI50 up to about 1.1 µM and inactive = higher.
Classes used: class 1 = active, class 0 = inactive

{"MOLECULE": "CC(=O)NC1C(OCC(=O)NCCNc2ccc([N+](=O)[O-])c3[nH]c4ccccc4c(=O)c23)C(O)C(CO)OC1(C)OCc1ccccc1 (centres undefined)", "CAT": "class 0"}
{"MOLECULE": "Cc1ccc2c(O)c3c(cc2c1)C(=O)c1c2c(cc(O)c1C3=O)C1(C)OC(O2)C(O)C(N(C)C)C1O (centres undefined)", "CAT": "class 0"}
{"MOLECULE": "COC1(CCO)CC=CCC1(CCO)OC (centres undefined)", "CAT": "class 0"}
{"MOLECULE": "CN(C)c1ccc(/C=C/c2cc[n+](C)c3ccccc23)cc1", "CAT": "class 1"}
{"MOLECULE": "CC(C)Sc1nc(C#N)cc2c1CCCC2", "CAT": "class 0"}
{"MOLECULE": "CC(C)(C)c1cc(OCc2nnc(S)n2N)c(Cl)cc1OCc1nnc(S)n1N", "CAT": "class 0"}
{"MOLECULE": "Cc1cccc(NC(=O)CCl)c1", "CAT": "class 0"}
{"MOLECULE": "Cc1ccc(S(=O)(=O)c2ccsc2NC(=O)c2ccccc2)cc1", "CAT": "class 0"}
{"MOLECULE": "CC(=O)OC/C=C(/C=C/CNC1CCCCC1)OC(C)=O", "CAT": "class 0"}
{"MOLECULE": "CCOC(=O)[C@H](C)OC(=O)[C@@](C)(NC(=O)c1ccccc1C(=O)OC)[C@@H]1NC=C(C(=O)OC)CS1", "CAT": "class 0"}
{"MOLECULE": "CCCCCCCCCCCCCCCCCc1cc(Cl)nc(Cl)n1", "CAT": "class 0"}
{"MOLECULE": "CCOC(=O)c1c(NC(=O)OC)c(C#N)c2n1CCCCC2", "CAT": "class 0"}
{"MOLECULE": "CC(C)(CCCCC(C)(C)NCC1COc2ccccc2O1)NCC1COc2ccccc2O1 (centres undefined)", "CAT": "class 0"}
{"MOLECULE": "C1=Cc2ccccc2C1.C=C(C)c1ccccc1.[N-]=[N+]=Nc1ccccc1", "CAT": "class 0"}
{"MOLECULE": "Clc1ccc(/C=C/c2nc(Cl)c(-c3ccc(Cl)cc3)c(Cl)n2)cc1", "CAT": "class 0"}
{"MOLECULE": "Clc1ccc(COC(Cn2ccnc2)c2ccc(Cl)cc2Cl)cc1 (centres undefined) [ECONAZOLE]", "CAT": "class 0"}
{"MOLECULE": "COc1ccc([N+](=O)[O-])c2c(NCC(O)CO)ccnc12 (centres undefined)", "CAT": "class 0"}
{"MOLECULE": "CC(=O)OC(=C(C#N)C#N)c1nccnc1C(=O)O", "CAT": "class 0"}
{"MOLECULE": "O=C(/N=C1/OC(CN2CCOCC2)CN1C(=O)Nc1ccccc1)Nc1ccccc1 (centres undefined)", "CAT": "class 0"}
{"MOLECULE": "O=C(c1ccc([N+](=O)[O-])cc1)N1CCCC1", "CAT": "class 0"}
{"MOLECULE": "Cc1ccccc1N/N=C1\\C(=O)Nc2ccccc21", "CAT": "class 0"}
{"MOLECULE": "CNC1C(O)C(NC)C2OC3(O)C(=O)CC(C)OC3OC2C1O (centres undefined)", "CAT": "class 0"}
{"MOLECULE": "CC(=O)NC1C(OCc2ccccc2)OC(CO)C(O)C1OCC(=O)NC(C(=O)NC(CCC(=O)NCCCCCC(=O)Nc1ccc2c(c1)CN1C(=O)c3ccccc3C1=N2)C(N)=O)C(C)C (centres undefined)", "CAT": "class 0"}
{"MOLECULE": "O=C(CC(O)(C(F)(F)F)C(F)(F)F)c1cccs1", "CAT": "class 0"}
